System: Malme-3M
MEASUREMENT_DESCRIPTION: NCI tumour cell line growth inhibition, 48 h
Active and inactive are the calls of the source. Rule as the data show it: active = GI50 up to about 1.1 µM and inactive = higher.
Collected GI50 values appear next to each entry.
READOUT: GI50

| COMPOUND | REPORTED_RESULT |
| --- | --- |
| O=S(=O)(c1ccc(/N=N/O)nc1)c1ccc2ccccc2c1 | 26.5 µM (inactive) |
| COc1cc2c(c(OC)c1OC)-c1c(cc3c(c1OC)OCO3)CC(C)C(C)(O)C2OC(=O)c1ccccc1 (configuration not stated) | 45.5 µM (inactive) |
| N#Cc1c(O)c2ccccc2[nH]c1=O | > 100 µM (inactive) |
| C=CCN1C(=O)C/C(=C2/CCC(=O)N2CC=C)C1=O | > 100 µM (inactive) |
| O=C(CCl)Nc1cc(Cl)c(Cl)cc1Cl | 1.41 µM (inactive) |
| CSc1nc(NC2OC(COC(C)=O)C(OC(C)=O)C(OC(C)=O)C2OC(C)=O)c(/N=C\C=N/c2c(NC3OC(COC(C)=O)C(OC(C)=O)C(OC(C)=O)C3OC(C)=O)nc(SC)n(C)c2=O)c(=O)n1C (configuration not stated) | 81.5 µM (inactive) |
| Cc1ccc(-c2c(C#N)c(-c3ccccc3)c(C#N)c(=O)n2NS(=O)(=O)c2ccc(C)cc2)cc1 | > 100 µM (inactive) |
| COC(=O)C1(C(=O)OC)CC(=O)c2c(OC(=O)c3cccc(OC)c3C#N)ccc(OC(=O)c3cccc(OC)c3C#N)c2C1 | > 100 µM (inactive) |
| N#CC1C2CCC3(CC2CCN1C(=O)c1ccccc1)OCCO3 (configuration not stated) | > 100 µM (inactive) |
| NC(=S)N/N=C(\C(=O)Nc1ccc(Cl)c(Cl)c1)C1=NN(c2ccccc2)C(c2cccc([N+](=O)[O-])c2)CC1=O (configuration not stated) | > 100 µM (inactive) |
| Cc1nn(-c2ccccc2)c2nc3c(c(C)nn3-c3ccccc3)c(-c3ccccc3Br)c12 | > 100 µM (inactive) |
| O=C(O)Cn1ccc(=O)c2c([N+](=O)[O-])cccc21 | > 100 µM (inactive) |
| N#CC(C(=O)C(N)=O)c1ccccc1Cl (configuration not stated) | > 100 µM (inactive) |
| O=[N+]([O-])c1cccc([N+](=O)[O-])c1Cl | 17.4 µM (inactive) |
| CC(=O)O[C@H]1C(=O)[C@@]2(C)[C@H]([C@H](OC(=O)c3cccc(C(F)(F)F)c3)[C@]3(O)C[C@H](OC(=O)[C@H](O)[C@@H](NC(=O)c4ccccc4)c4ccccc4)C(C)=C1C3(C)C)[C@]1(OC(C)=O)CO[C@@H]1C[C@@H]2O | 0.00318 µM (active) |
| O=C(O)[C@@H]1OCCOCCO[C@@H](C(=O)O)[C@H](C(=O)O)OCCOCCO[C@H]1C(=O)O | > 100 µM (inactive) |
| C/C(=C\C(=N\NC(=N)N)c1ccccc1)c1ccccc1 | 1.16 µM (inactive) |
| C/C(=N\NC(=S)NC(C)(C)C)c1nc2cccnc2[nH]1 | 4.49 µM (inactive) |
| CCOC(=O)c1c(SCCN2CCCC2)n(-c2ccccc2)c(=S)n(-c2ccccc2)c1=O | 1.56 µM (inactive) |
| O=C(Nc1nc(C23CC4CC(CC(C4)C2)C3)cs1)c1cc2cc(Br)cc(Br)c2oc1=O | > 100 µM (inactive) |
| O=C1c2ccccc2C(=O)c2c1ccc1c2OCO1 | > 100 µM (inactive) |
| CN(CCc1ccc(Cl)c(Cl)c1)[C@H]1CCCC[C@H]1N1CCCC1 | > 100 µM (inactive) |

====

Test system: TK-10
MEASUREMENT_DESCRIPTION: NCI tumour cell line growth inhibition, 48 h
Active and inactive are the calls of the source. Cut-off read from the data, not from the text of the source: active = GI50 up to about 1.1 µM and inactive = higher.
Collected GI50 values appear next to each entry.

| COMPOUND | GI50 |
| --- | --- |
| CCOC(=O)N1CCN(c2ccc3ccc(N)nc3n2)CC1 | > 100 µM (inactive) |
| CC(C)=NOC(=O)CNC(=O)C(Cc1ccccc1)NC(=O)C(C)NC(=O)OC(C)(C)C (stereo not given) | > 100 µM (inactive) |
| Cc1[nH]n(C2=NCCN2)c(=O)c1Cc1ccccc1 | > 100 µM (inactive) |
| O=c1n(-c2ccc(Cl)c(Cl)c2)c(=O)n(-c2ccc(Cl)c(Cl)c2)c(=O)n1-c1ccc(Cl)c(Cl)c1 | 5.53 µM (inactive) |
| CCOC(=O)c1c(SCCN2CCCC2)n(-c2ccccc2)c(=S)n(-c2ccccc2)c1=O | 1.67 µM (inactive) |
| COc1cc2oc3ccccc3c(=O)c2cc1CSc1ccccc1N | 35.5 µM (inactive) |
| CC(C)NC(=O)OCc1c(COC(=O)NC(C)C)c(-c2ccc[n+](COC(=O)Cc3ccccc3)c2)n2c1CCC2 | 45 µM (inactive) |
| COc1ccc(C)cc1NC(=S)C#N | 31.9 µM (inactive) |
| CCCCCCCCOC(=O)C12Oc3ccc(-c4ccc5c(c4O)C(=O)C4=C(O)CC(C)C(O)C4(C(=O)OCCCCCCCC)O5)c(O)c3C(=O)C1=C(O)CC(C)C2O (stereo not given) | 15.5 µM (inactive) |
| Cc1cnc2sn(-c3ccc([N+](=O)[O-])cc3)c(=O)c2c1 | 75.2 µM (inactive) |
| N#Cc1c(=O)c2ccccc2n2ccccc12 | > 100 µM (inactive) |
| CCOP(=O)(OCC)OC(C#N)c1ccc(-c2ccccc2)cc1 (stereo not given) | 30.5 µM (inactive) |
| O=c1[nH]c(=O)n(C2CC(O)C(CO)O2)c2nc3cc4ccccc4cc3nc12 (stereo not given) | > 100 µM (inactive) |
| COC(=O)c1ccc2c(c1)CC1(C2)Cc2cc3c(c(C(=O)OC)c2C1)CCCC3 (stereo not given) | 72.1 µM (inactive) |
| CCOC(=O)NN(C(=O)OCC)C(C(=O)C1=CCCCC1)N(NC(=O)OCC)C(=O)OCC | > 100 µM (inactive) |
| CN(CCc1ccc(Cl)c(Cl)c1)[C@H]1CCCC[C@H]1N1CCCC1 | > 100 µM (inactive) |
| CSc1nc2c(c(N(C)C)n1)C(O)n1c(nc3ccccc31)S2 (stereo not given) | > 53.2 µM (inactive) |
| N#CC(NNC(=O)Cc1ccccc1)c1ccc([N+](=O)[O-])cc1 (stereo not given) | > 100 µM (inactive) |
| Cc1cc(C)nc(NS(=O)(=O)c2ccc(Nc3c4ccccc4nc4c(C(=O)Nc5ccc(S(=O)(=O)N=C(N)N)cc5)cccc34)cc2)n1 | > 100 µM (inactive) |
| COC(=O)c1c(C)cccc1C1CN=NC12Cc1ccc(C)c(C)c1C2=O (stereo not given) | > 100 µM (inactive) |
| Nc1nc(Cl)cc(NCC2(CO)CC(OCc3ccccc3)C2)n1 (stereo not given) | 19.4 µM (inactive) |
| COCCOC(=O)c1c(C)[n+]([O-])c2cc(Cl)c(Cl)cc2[n+]1[O-] | 23.2 µM (inactive) |
| C=C(C(=O)O[C@H]1C/C(C)=C/CC/C(CO)=C/[C@H]2C(=O)OC(=C)[C@H]12)C(O)CO (stereo not given in full) | 7.93 µM (inactive) |
| Cn1c(N)c(/C=N/NC(=O)CC#N)c(=O)n(C)c1=O | > 100 µM (inactive) |
| O=C1C(=O)N(c2cccc(C(F)(F)F)c2)C(=O)C(=O)C1c1nc2ccccc2s1 | > 90.8 µM (inactive) |
| C/C(=N\NC(=S)NC(CCC(=O)O)C(=O)O)c1cnccn1 (stereo not given) | > 100 µM (inactive) |
| O=C1CCCc2cc3c(cc21)CC1(C3)Cc2cc3c(cc2C1)C(=O)CCC3 | 1.81 µM (inactive) |
| COc1ccc(NC(=O)C(=O)C(C(=O)c2ccccc2)C2OC(=O)c3ccccc32)c([N+](=O)[O-])c1 (stereo not given) | > 100 µM (inactive) |
| O=C1NN(c2ccccc2)C(=O)C2C3c4ccccc4C(c4ccccc43)C12 (stereo not given) | > 100 µM (inactive) |
| Cc1ccc2c(O)cc(-c3ccc(C)s3)nc2n1 | 19.3 µM (inactive) |
| S=C1/C(=N/c2ccccc2)N(c2ccccc2)/C(=N\c2cccc[n+]2Cc2ccccc2)N1c1ccccc1 | 26.3 µM (inactive) |
| CC1(c2sccc2Cl)CC(c2sccc2Cl)=C(C#N)C(=C(C#N)C#N)N1 (stereo not given) | 17.2 µM (inactive) |
| N#Cc1cc([N+](=O)[O-])ccc1NC(=O)C(=O)C(C(=O)/C=C/c1ccccc1)C1OC(=O)c2ccccc21 (stereo not given) | > 100 µM (inactive) |
| NS(=O)(=O)c1nnc(NC(=O)CCC(=O)O)s1 | > 100 µM (inactive) |
| C/C(=N\NC(=S)NC(C)(C)C)c1nc2cccnc2[nH]1 | 7.35 µM (inactive) |
| COc1ccc(-c2c3c(n(C4OC(CO)C(O)C(O)C4O)c(=S)c2C#N)CC(C)(C)CC3=O)cc1 (stereo not given) | > 100 µM (inactive) |
| O=C(O)c1ccc(Nc2cnc3ccc(C(F)(F)F)cc3n2)cc1 | 13.6 µM (inactive) |
| CC1CN=C(N(C(=O)Nc2ccc(Cl)cc2)c2cccc(Cl)c2)S1 (stereo not given) | 15 µM (inactive) |
| CC(C)(CO)N1CCN(C(S)=Nc2ccccc2)CC1 | > 100 µM (inactive) |
| N#Cc1c(N)nc(Sc2ccccc2N)c(C#N)c1-c1ccc(Cl)cc1 | 13.7 µM (inactive) |
